- System: NCI-H2023
- Experiment Summary: relative viability (nuclei count vs DMSO), 5 days (fraction); higher = more cells survive
- Experimental Setup: first compound 0.0002 µM

Compound: CC(=O)O[C@@]12CO[C@@H]1C[C@H](O)[C@@]1(C)C(=O)[C@H](O)C3=C(C)[C@@H](OC(=O)[C@H](O)[C@@H](NC(=O)OC(C)(C)C)c4ccccc4)C[C@@](O)([C@@H](OC(=O)c4ccccc4)[C@H]21)C3(C)C [Docetaxel] + CC(=O)Nc1cccc(-n2c(=O)n(C3CC3)c(=O)c3c(Nc4ccc(I)cc4F)n(C)c(=O)c(C)c32)c1 [Trametinib] (partner 0.02 µM)
relative viability: 0.498
--
Compound: CC(=O)O[C@@]12CO[C@@H]1C[C@H](O)[C@@]1(C)C(=O)[C@H](O)C3=C(C)[C@@H](OC(=O)[C@H](O)[C@@H](NC(=O)OC(C)(C)C)c4ccccc4)C[C@@](O)([C@@H](OC(=O)c4ccccc4)[C@H]21)C3(C)C [Docetaxel] + Cc1nc(NC(=O)N2CCC[C@H]2C(N)=O)sc1-c1ccnc(C(C)(C)C(F)(F)F)c1 [Alpelisib] (partner 2 µM)
relative viability: 0.49
--
Compound: CC(=O)O[C@@]12CO[C@@H]1C[C@H](O)[C@@]1(C)C(=O)[C@H](O)C3=C(C)[C@@H](OC(=O)[C@H](O)[C@@H](NC(=O)OC(C)(C)C)c4ccccc4)C[C@@](O)([C@@H](OC(=O)c4ccccc4)[C@H]21)C3(C)C [Docetaxel] + Cc1nc(Nc2ncc(C(=O)Nc3c(C)cccc3Cl)s2)cc(N2CCN(CCO)CC2)n1 [Dasatinib] (partner 0.075 µM)
relative viability: 0.467
--
Compound: CC(=O)O[C@@]12CO[C@@H]1C[C@H](O)[C@@]1(C)C(=O)[C@H](O)C3=C(C)[C@@H](OC(=O)[C@H](O)[C@@H](NC(=O)OC(C)(C)C)c4ccccc4)C[C@@](O)([C@@H](OC(=O)c4ccccc4)[C@H]21)C3(C)C [Docetaxel] + CC1(C)CCC(c2ccc(Cl)cc2)=C(CN2CCN(c3ccc(C(=O)NS(=O)(=O)c4ccc(N[C@H](CCN5CCOCC5)CSc5ccccc5)c(S(=O)(=O)C(F)(F)F)c4)cc3)CC2)C1 [Navitoclax] (partner 0.5 µM)
relative viability: 1.01
--
Compound: CC(=O)O[C@@]12CO[C@@H]1C[C@H](O)[C@@]1(C)C(=O)[C@H](O)C3=C(C)[C@@H](OC(=O)[C@H](O)[C@@H](NC(=O)OC(C)(C)C)c4ccccc4)C[C@@](O)([C@@H](OC(=O)c4ccccc4)[C@H]21)C3(C)C [Docetaxel] + O=C(CCCCCCC(=O)Nc1ccccc1)NO [Vorinostat] (partner 1 µM)
relative viability: 0.466
--
Compound: CC(=O)O[C@@]12CO[C@@H]1C[C@H](O)[C@@]1(C)C(=O)[C@H](O)C3=C(C)[C@@H](OC(=O)[C@H](O)[C@@H](NC(=O)OC(C)(C)C)c4ccccc4)C[C@@](O)([C@@H](OC(=O)c4ccccc4)[C@H]21)C3(C)C [Docetaxel] + Cc1cc(Nc2cc(N3CCN(C)CC3)nc(Sc3ccc(NC(=O)C4CC4)cc3)n2)n[nH]1 [Tozasertib] (partner 0.1 µM)
relative viability: 0.317

From: the supplement of paper PMC10307832
